Origin of values: ChEMBL document CHEMBL1765075

# measured.on: Serine/threonine-protein kinase N2 (Homo sapiens, UniProt Q16513)
# Sequence (Q16513 whole entry): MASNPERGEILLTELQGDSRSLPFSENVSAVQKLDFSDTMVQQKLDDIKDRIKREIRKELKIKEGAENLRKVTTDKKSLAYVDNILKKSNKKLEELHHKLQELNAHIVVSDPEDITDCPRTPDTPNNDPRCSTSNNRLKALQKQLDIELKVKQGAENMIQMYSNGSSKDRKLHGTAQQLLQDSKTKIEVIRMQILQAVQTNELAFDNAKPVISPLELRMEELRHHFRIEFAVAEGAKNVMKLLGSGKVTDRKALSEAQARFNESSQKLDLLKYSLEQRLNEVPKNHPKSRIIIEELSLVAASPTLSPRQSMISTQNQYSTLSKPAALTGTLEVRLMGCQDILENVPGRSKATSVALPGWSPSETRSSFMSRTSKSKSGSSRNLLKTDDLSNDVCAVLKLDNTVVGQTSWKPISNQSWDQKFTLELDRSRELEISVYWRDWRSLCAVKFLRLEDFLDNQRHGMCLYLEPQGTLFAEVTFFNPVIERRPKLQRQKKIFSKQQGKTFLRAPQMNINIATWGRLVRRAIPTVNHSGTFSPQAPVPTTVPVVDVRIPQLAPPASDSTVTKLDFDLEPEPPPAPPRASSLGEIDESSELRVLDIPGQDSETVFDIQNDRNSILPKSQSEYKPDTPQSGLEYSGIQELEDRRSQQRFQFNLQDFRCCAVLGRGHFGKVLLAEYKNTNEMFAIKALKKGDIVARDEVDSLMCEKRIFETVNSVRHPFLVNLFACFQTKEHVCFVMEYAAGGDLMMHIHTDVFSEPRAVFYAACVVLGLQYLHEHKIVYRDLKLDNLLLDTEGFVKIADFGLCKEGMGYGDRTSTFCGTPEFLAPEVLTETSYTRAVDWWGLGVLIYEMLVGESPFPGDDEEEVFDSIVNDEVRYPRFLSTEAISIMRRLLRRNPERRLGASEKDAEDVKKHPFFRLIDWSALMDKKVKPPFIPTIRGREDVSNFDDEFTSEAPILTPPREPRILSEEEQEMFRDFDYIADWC
measured.parameter: Ki

Ask: Form: Entry = `CNc1cncc(-c2c[nH]c(=O)c(NC(=O)c3ccc(N4CCC[C@H]4CN4CCCC4)cc3)c2)n1` | System = Serine/threonine-protein kinase N2 (Homo sapiens, UniProt Q16513) | Ki = ____
Result: > 1000 nM

---

# measured.on: Proto-oncogene tyrosine-protein kinase Src (Homo sapiens, UniProt P12931)
# Sequence (P12931 2-536 limits assumed): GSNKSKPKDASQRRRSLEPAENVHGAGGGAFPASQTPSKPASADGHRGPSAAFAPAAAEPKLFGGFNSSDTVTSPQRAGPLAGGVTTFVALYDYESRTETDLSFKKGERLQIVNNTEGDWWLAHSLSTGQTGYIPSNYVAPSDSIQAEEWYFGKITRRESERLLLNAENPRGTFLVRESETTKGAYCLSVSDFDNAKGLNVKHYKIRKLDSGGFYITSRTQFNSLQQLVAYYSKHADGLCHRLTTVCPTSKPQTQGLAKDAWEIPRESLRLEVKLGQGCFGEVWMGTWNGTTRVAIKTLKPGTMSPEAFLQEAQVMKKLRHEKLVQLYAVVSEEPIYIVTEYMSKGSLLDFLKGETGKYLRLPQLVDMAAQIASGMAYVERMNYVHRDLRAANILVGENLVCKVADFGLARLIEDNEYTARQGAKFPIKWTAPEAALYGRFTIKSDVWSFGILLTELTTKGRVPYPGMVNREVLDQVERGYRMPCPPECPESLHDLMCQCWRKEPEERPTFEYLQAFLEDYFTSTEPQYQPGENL
# test.protocol: Inhibition of SRC
measured.parameter: Ki (nM)
Please give a number only; it is taken to be in nM.

Ask: Requested read-out: Ki. Entry: `CNc1cncc(-c2c[nH]c(=O)c(NC(=O)c3ccc(N4CCC[C@H]4CN4CCCC4)cc3)c2)n1`
Result: 120
